Tested on: COLO 205 colon
Protocol: NCI-60 one-dose screen, 48 h
Test context: 10 µM
About 83,000 compounds went through this panel and 20% of them were active in at least one assay; those are over-represented in the sample as a whole. The source made the active and inactive calls. Rule for the calls: active = growth percent below 10; inactive = the rest.
Would you mind answering with one of these outcomes? 1.0 (active), 0.0 (inactive)

// known answers, use as guide
- COc1cc(NC(=O)CSc2nnc(-c3ccc4nc(-c5ccc(Cl)cc5)[nH]c4c3)o2)cc(OC)c1OC: 0.0
- CCCn1c(=O)c2[nH]c(-c3ccc(OCc4nc5ccc(C#N)cc5[nH]4)cc3)nc2n(CCC)c1=O: 0.0
- Cc1ccc(-c2nc3ccc(C(=O)N=Nc4c(O)[nH]c5ccc([N+](=O)[O-])cc45)cc3[nH]2)cc1: 0.0
- COc1nccnc1NS(=O)(=O)c1ccc(NC2=C(Cl)C(=O)c3nc(C)ccc3C2=O)cc1: 0.0
- O=C1NC(=NC23CC4CC(CC(C4)C2)C3)N/C1=C\c1ccc2ncoc2c1: 1.0

Ask | Recorded test outcome, item O=C(c1ccc(O)cc1)C1[C@H](c2ccccc2Br)[C@@H](c2ccccc2)NC12C(=O)Nc1ccc(Br)cc12 (some centres undefined)
Reply | 0.0

Ask | Please state the recorded outcome for this compound: COc1cc(/C=C/C(=O)c2ccc(S(=O)(=O)NCCNc3nc(Nc4ccc(F)cc4)nc(N(C)C)n3)cc2)cc(OC)c1OC
Reply | 1.0

Source listed as PubChem BioAssay (NCI).
